Would you kindly list apparent KD of MS2 coat protein for each of these sequences?
# Tested on: MS2 coat protein
# assay.text: apparent KD of MS2 coat protein; designed switch direction (-1 OFF switch, 1 ON switch): -1; higher = weaker reporter binding
# run.parameters: input ligand: FMN 200 uM
Please don't drop the unit; write it after the number.

Given the entry AAUAACAGAGGAUAUACUAUUUUAUGUGUUUGUUAUUUUAAACAUGAGGAUCACCCAUGUAGAAGGCUGAUUAA [JMF 44] (Eterna round: R96, puzzle: Exclusion 2) , report its measured apparent KD of MS2 coat protein.
47.7 nM

Look up apparent KD of MS2 coat protein: GGGUGACAGUUAGGAUAUCUUAGCACGCCGUAGAGAGAAGGGACAUGAGGAUCACCCAUGUUGUAGUGCCUCCAGCACUGCUAG [Esrasoce] (Eterna round: R96, puzzle: Exclusion NG 1)
105 nM

Entry under review: GCUGGAAGAGGAUAUACAUAAGGUGCGUCAGCACCGGGCCUACAUGAGGAUCACCCAUGUAGAAGGCUUCCAGC [EX2 #78] (Eterna round: R97, puzzle: Exclusion 2) . Reported apparent KD of MS2 coat protein?
55.1 nM

###

I'd appreciate it if you could supply apparent KD of MS2 coat protein values for the items below.
# System: MS2 coat protein
# assay.text: apparent KD of MS2 coat protein; designed switch direction (-1 OFF switch, 1 ON switch): -1; higher = weaker reporter binding
# run.parameters: input ligand: none
Give the value in µM but do not write µM after it.

So what does the record say about apparent KD of MS2 coat protein for GUAACAUGCUGGUGAUCAUACAUGAGGAUCACCCAUGUAACAAGCUUUUUGUUCGUCUUAUAAGAUUACUAGUAUGU [Stov1/10-B2] (Eterna round: R97, puzzle: Sensor, turn-off variant 1) ?
0.0397

So what's the measured apparent KD of MS2 coat protein for this one? UUAGGCUGAAGAUCAAUUAAUUAACAUGAGGAUCACCCAUGUAAGGAUAUCAGCUCGUUUAGAGCUGAGAAGGUACAUGCAGCC [ExNG3/18-A2] (Eterna round: R96, puzzle: Exclusion NG 3)
0.118

// query apparent KD of MS2 coat protein value for entry UUAUUAAUUAAGACUGCAAGAUCACAUGAGGAUCACCCAUGUCAGGAUAUCAGCUCGAUUAGAGCUGAGAAGGGACAAGCAGUC [ExNG3/15-A1] (Eterna round: R96, puzzle: Exclusion NG 3)
0.0996

Data request, read-out apparent KD of MS2 coat protein, for GCUGACAAGCUGGAGACAGCAGAGACAUGAGGAUCACCCAUGUAGGAUAUCGAUGCGAAAAGCAUCGAGAAGGGCAUAGUCAGC [exng3 v2 a] (Eterna round: R96, puzzle: Exclusion NG 3)
0.0172

Which value of apparent KD of MS2 coat protein has been reported for CCGUGCACGCUCCGGUCCUACAUGAGGAUCACCCAUGUGGUCCGGUGGCGUGGGUCGCCGGACUUGGCUCGUCUUGU [salish99_S_TOV1_R5_018] (Eterna round: R97, puzzle: Sensor, turn-off variant 1) in the records?
0.0174

Report apparent KD of MS2 coat protein for UAUUAGCAAGCAAGAUCCCACAUGAGGAUCACCCAUGUGCUCGUCUUAUAAGGUACUGUGACGAAAGUCACGGUACC [Sensor 3, v1 - 95 v2] (Eterna round: R97, puzzle: Sensor, turn-off variant 1) please.
0.0454

// lookup apparent KD of MS2 coat protein for GCACGAAGUGUAGGAUAUCUGUGCGAUUAGCUCAGAGAAGGACACAUGAGGAUCACCCAUGUGUUCCAGCGAAAGCAAACGUGC [Eli exng1 - 055] (Eterna round: R96, puzzle: Exclusion NG 1)
0.0129

Which apparent KD of MS2 coat protein is reported for this sequence? ACACUGCGAGGAUAUACAUGAGGAUCACCCAUGUAUCGGUAGACAAGGUUAAUUUAAGGUAGAAGGCGCGUAUU [JR_Ex3_Sub008] (Eterna round: R97, puzzle: Exclusion 3)
0.0291

Please give the measured apparent KD of MS2 coat protein for this sequence: CUGAGAUCAGGAUAUACAUGAGGAUCACCCAUGUAAAGUAGCUUGCGUACAGGCAGAUGUAGAAGGGAUUUCGG [Mod of JL 5 - Jieux - Exclusion 3] (Eterna round: R97, puzzle: Exclusion 3)
0.0265

// returns reported apparent KD of MS2 coat protein for input ACUUAUUGAGGAUAUACAUUAAAUUACAUGAGGAUCACCCAUGUUCUUCAAUGUAUAUAUGUAGAAGGCAAAAGAG [Mat - Exclusion 5 - JL Mod - D22] (Eterna round: R97, puzzle: Exclusion 5)
0.0144

# query: apparent KD of MS2 coat protein of entry UUUUUAUAUGAAGGAUAUACUUAACAUGAGGAUCACCCAUGUGGUGUUGUGAGUGAGUGAGUUUAGUAGAAGGUCAAUGAUUUA [JMF's solution 62] (Eterna round: R96, puzzle: Exclusion NG 2)
0.354

For the sequence CAGUACUGAGGAUAUACAUGAGGAUCACCCAUGUGUCCCAGCUAGGAUACUAGCAAAGGUAGAAGGCAGUACUG [Mat - Exclusion 3 - Eli Mod - D15] (Eterna round: R97, puzzle: Exclusion 3) , what apparent KD of MS2 coat protein is on record?
0.0392

Entry UGUUGUUACGUAGGAUAUUGCCAACAGGCAGUAGGAUAUGCGAAAGCAGAAGGACCGCCAACAGGCGAGAAGGACGGGUUAACA [pwkr exNG2 2xF7 2xFMN.11] (Eterna round: R96, puzzle: Exclusion NG 2) has what apparent KD of MS2 coat protein?
0.389

I would be grateful if you could share the reported apparent KD of MS2 coat protein for UUCCUCAUAACAUGAGGAUCACCCAUGUAUUAUUUGAUAACUGAGGAUAUACUAAUAAUGUUUAUGUAGAAGGCAGAUACAGAU [JR_ExcNG3_Sub015] (Eterna round: R96, puzzle: Exclusion NG 3) .
0.0591

apparent KD of MS2 coat protein for CAGUACUGAGGAUAUACAUGAGGAUCACCCAUGUGUACCAGCUAGGAUACUAGCAAAAGUAGAAGGCAGUACUG [Mat - Exclusion 3 - Eli Mod - D21] (Eterna round: R97, puzzle: Exclusion 3) ?
0.0195

Would you mind telling me what apparent KD of MS2 coat protein value was observed for GACUAGGCAGGAUAUACAUGAGGAUCACCCAUGUGUCUGCGUUGGGCACGUGAACACCGUAGAAGGGCCUUGAC [ChP 13.04.2015 #14] (Eterna round: R96, puzzle: Exclusion 3) ?
0.0202

For the sequence UUAUAUAGUAUAGGAUAUUAGAGGAGAAUGGUGAUAGAGACAUGAGGAUCACCCAUGUGAGGAGAUAAGAAGGGUAAUAAUUAU [AK ExNG2-V2-3] (Eterna round: R96, puzzle: Exclusion NG 2) , what apparent KD of MS2 coat protein is on record?
0.351

Look up apparent KD of MS2 coat protein: ACAUGUGUUGUAGGAUAUAGUGGACAUGAGGAUCACCCAUGUUGAUUCAUGUCUAUGGAAACGUACUAGAAGGACGACAAUAUG [Ex NG2 #18] (Eterna round: R96, puzzle: Exclusion NG 2)
1.05
